Entries and their GI50
- Tested on: OVCAR-4 ovarian
- protocol-text: NCI tumour cell line growth inhibition, 48 h

O=C(O)CCC/C=C\C[C@H]1C=CC(=O)/C1=C/C[C@@H](O)CCc1cccc(C(F)(F)F)c1
3.94 µM
Nc1nc2cc3ccc(C4CC(O)C(CO)O4)cc3cc2c(=O)[nH]1 (configuration not stated)
> 100 µM
COC1C(O)C(C)OC(OC2C(Oc3cccc4c(O)c5c(=O)oc6ccc(C)c7c(=O)oc(c34)c5c67)OC(C)C(O)C2O)C1O (configuration not stated)
11.5 µM
CC(=O)N1c2ccccc2NC2=C(C(=O)N(Cc3ccccc3)C2(C)C)C1c1ccco1 (configuration not stated)
> 6.37 µM
CC(=O)[O-].[Mn+3].[O-]c1ccccc1C=NCCN=Cc1ccccc1[O-]
> 100 µM
Cc1cc(Nc2c3ccccc3nc3ccccc23)ccc1NS(C)(=O)=O
5.03 µM
COC(=O)c1c(O)c([N+](=O)[O-])cc2c1c1c(n2Cc2ccccc2)C(=O)c2ccccc2C1=O
57.3 µM
O=Cc1ccc(-c2ccc(-c3nc4ccccc4o3)cc2)s1
34.9 µM

The record that follows has no GI50 shown yet.
Note to self: GI50 recorded for CC(C)CC(=O)Nc1n[nH]c2c1CN(C(=O)C1CCN(C)CC1)C2(C)C was 2.54 µM

====

- Test system: MCF7 breast
- protocol-text: NCI tumour cell line growth inhibition, 48 h
readout-label: TGI (µM)
Entry rule: numbers only, all in µM.

Worked set:
Cc1cc(O)c(C2=NN(c3ccc(S(N)(=O)=O)cc3)C(c3ccc(N(C)C)cc3)C2)c(C)c1Cl (configuration not stated)
24.2
Cn1c(-c2cccs2)cc(-c2cccs2)c1-c1ccco1
5.41

The record that follows has no TGI shown yet.
Note to self: TGI recorded for CN1CCN(c2cc(C(=O)Nc3cc4cc(-c5cnn(C)c5)ccc4cn3)ccn2)CC1 was 0.399

====

- System: SNB-19 CNS
- protocol-text: NCI tumour cell line growth inhibition, 48 h
Entries and their TGI
Entry rule: numbers only, all in µM.

CN(C)CCNC(=O)c1cccc2c(Nc3ccc(S(N)(=O)=O)cc3)c3ccccc3nc12
10.7

The record that follows has no TGI shown yet.
Note to self: TGI recorded for Clc1ccc(C2=Nn3c(nnc3-c3cc(Cl)cc(Cl)c3Cl)SC2)cc1 was 36.2

====

- Test system: HT29 colon
- protocol-text: NCI tumour cell line growth inhibition, 48 h; in the data active means GI50 below about 0.43 µM; inactive means the rest
Your response should consist of one outcome taken from True = active, False = inactive

QUERY: How was O=C(Nc1ccccc1O)c1ccc(CNc2ccnc(C(F)(F)F)c2)cc1 classified in this test?
RESULT: False

QUERY: How was CC#C/C(=N\OC[C@H]1COCCN1)c1ccc2ncnc(Nc3ccc(OCc4cccc(F)c4)c(Cl)c3)c2c1 classified in this test?
RESULT: False

QUERY: How was CCCCCCCCCCCCCCCC[N+](C)(CCO)Cc1cnc[nH]1 (centres undefined) classified in this test?
RESULT: True

QUERY: How was CC(=O)N1c2ccccc2NC2=C(C(=O)N(Cc3ccccc3)C2(C)C)C1c1ccco1 (centres undefined) classified in this test?
RESULT: False

====

Entries and their TGI
- Test system: SN12C renal
- protocol-text: NCI tumour cell line growth inhibition, 48 h

Cc1ccc([N+](=O)[O-])cc1S(=O)(=O)Nc1ccc(C2=NNC(c3ccccc3O)C2)cc1 (centres undefined)
82.9 µM

Note to self: TGI recorded for Cc1cc(-c2nc3ccccc3s2)ccc1N was > 77.9 µM

Note to self: TGI recorded for O=C(O)c1cc2ccccc2c(N=Nc2cc(C(F)(F)F)ccc2Cl)c1O was > 100 µM

Note to self: TGI recorded for O=C(Cc1nc2ccccc2s1)C(=O)Nc1cccc(Cl)c1 was > 100 µM

Note to self: TGI recorded for CN(/N=C/c1cccc2cccnc12)c1ccc([N+](=O)[O-])cc1 was > 100 µM

Note to self: TGI recorded for C/C=C1/CN2CCC3(O)c4ccccc4N4C=C(C(=O)OC)C1CC2C43O (centres undefined) was > 100 µM
